Tested on: K562 CRISPRi cells
Experiment: Constant region variant library pooled growth screen, K562
Type: cell-based, human
Details: sgRNA constant region variants; relative to the original, un-modified constant region cr995 (= 1)
value kind: Mean relative activity
Format: numeric value only, no unit, no commentary.

Past entries and their recorded results:
molecule | val
cr600 (nucleic acid, listed as DNA, chemistry not fully specified) guide: GTTTAAGAGCTAAGCTGGAAACAGCATAGCAAGTTTAAATAAGGCTAGTCCGTTATCAAGTTGAGAAACTGGCACCGAGTCGGTGCT | 1.021
cr606 (nucleic acid, listed as DNA, chemistry not fully specified) guide: GTTTAAGAGCTAAGCTGGAAACAGCATAGCAAGTTTAAATAAGGCTAGTCCGTTATCAAGTTGAAAAACTGGCCTCGAGTCGAGGCT | 1.007
cr978 (nucleic acid, listed as DNA, chemistry not fully specified) guide: GTTTAAGAGCTAAGCTGGAAACAGCATAGCAAGTTTAAATAAGGCTAGTCCGTTATCAACTTGAAAAAGTGGAAACGAGTCGTTTCT | 1.021
cr893 (nucleic acid, listed as DNA, chemistry not fully specified) guide: GTTTAAGAGCTAAGCTGGAAACAGCATAGCAAGTTTAAATAAGGCTAGTCCGTTATCAACTTGAAAAAGTGGCACCGAGTCGGTGTT | 0.9932
cr444 (nucleic acid, listed as DNA, chemistry not fully specified) guide: GTTTAAGAGCTAAGCTGGAAACAGCATAGCAAGTTTAAATAAGGCTAGTCCGTTATCAACTTGACAAAGTGGCACCGAGTCGGTGCT | 1.023

Exercise: For cr672 (nucleic acid, listed as DNA, chemistry not fully specified) guide: GTTTAAGAGCTAAGCTGGAAACAGCATAGCAAGTTTAAATAAGGCTAGTCCGTTATCAACTTGAAAAAGTGGCATCGAGTCGGTGCT , what is its reported Mean relative activity?
Solution: 1.005

Exercise: Now this one: cr980 (nucleic acid, listed as DNA, chemistry not fully specified) guide: GTTTAAGAGCTAAGCTGGAAACAGCATAGCAAGTTTAAATAAGGCTAGTCCGCTATCAACTTGAAAAAGTGGCACCGAGTCGGTGCT
Solution: 1.014
